Target: T1, GFP-9S library array, motif 4 ND (synthetic construct)
T1 chain: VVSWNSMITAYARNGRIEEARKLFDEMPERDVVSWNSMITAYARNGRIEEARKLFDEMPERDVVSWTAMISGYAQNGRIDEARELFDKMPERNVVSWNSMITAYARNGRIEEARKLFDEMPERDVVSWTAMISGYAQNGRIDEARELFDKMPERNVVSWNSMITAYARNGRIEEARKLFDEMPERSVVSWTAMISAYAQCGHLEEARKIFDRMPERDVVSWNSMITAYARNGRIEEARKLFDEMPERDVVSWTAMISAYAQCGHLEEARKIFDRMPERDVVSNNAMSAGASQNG
Test: high-throughput RNA pulldown from lysate on Ni-NTA beads; HRP: 50 mM Tris pH 8, 150 mM NaCl, 1 mM beta-mercaptoethanol, 50 ug/ml BSA, 3 ug/ml yeast RNA, 0.5% heparin; ITC and FP: Tris pH 8, 200 mM KCl, 5% glycerol; MST: 50 mM Tris pH 8, 200 mM NaCl, 1 mM DTT, BSA, heparin, 0.05% Tween 20
Conditions: tags: N-terminal His-eGFP; label: 5' IRDye 800CW
experimental endpoint: pKd
Value format note: pKd is -log10 of concentration (mol/L); just state the number.

binder	reported
AUUAAACGUGA (ssRNA) [IR-rpoA-A]	7.06

Please look up its pKd: AUUAUACGUGA (ssRNA) [IR-rpoA-U] 8.20
